# Test system: NCI-H2009
# Method notes: relative viability (nuclei count vs DMSO), 5 days (fraction); higher = more cells survive
# Conditions used: first compound 2.53 µM
Hi! Just check whether relative viability is below 0.9. Below gives Satisfied, equal or above gives Not satisfied.

Nc1cccc2c1CN(C1CCC(=O)NC1=O)C2=O (configuration not stated) [Lenalidomide] + O=C(c1cc(Cc2n[nH]c(=O)c3ccccc23)ccc1F)N1CCN(C(=O)C2CC2)CC1 [Olaparib] (partner 8 µM)
Satisfied
Nc1cccc2c1CN(C1CCC(=O)NC1=O)C2=O (configuration not stated) [Lenalidomide] + CC(C)C[C@H](NC(=O)[C@H](Cc1ccccc1)NC(=O)c1cnccn1)B(O)O [Bortezomib] (partner 0.002 µM)
Not satisfied
Nc1cccc2c1CN(C1CCC(=O)NC1=O)C2=O (configuration not stated) [Lenalidomide] + COc1cc2c(Oc3ccc(NC(=O)C4(C(=O)Nc5ccc(F)cc5)CC4)cc3F)ccnc2cc1OCCCN1CCOCC1 [Foretinib] (partner 0.25 µM)
Not satisfied
Nc1cccc2c1CN(C1CCC(=O)NC1=O)C2=O (configuration not stated) [Lenalidomide] + CS(=O)(=O)CCNCc1ccc(-c2ccc3ncnc(Nc4ccc(OCc5cccc(F)c5)c(Cl)c4)c3c2)o1 [Lapatinib] (partner 2 µM)
Not satisfied
Nc1cccc2c1CN(C1CCC(=O)NC1=O)C2=O (configuration not stated) [Lenalidomide] + C[C@@H](Oc1cc(-c2cnn(C3CCNCC3)c2)cnc1N)c1c(Cl)ccc(F)c1Cl [Crizotinib] (partner 1 µM)
Not satisfied
Nc1cccc2c1CN(C1CCC(=O)NC1=O)C2=O (configuration not stated) [Lenalidomide] + COc1cccc2cc(-c3nc([C@H]4CC[C@H](C(=O)O)CC4)n4ncnc(N)c34)[nH]c12 [OSI-027] (partner 0.5 µM)
Satisfied
Nc1cccc2c1CN(C1CCC(=O)NC1=O)C2=O (configuration not stated) [Lenalidomide] + CS(=O)(=O)N1CCN(Cc2cc3nc(-c4cccc5[nH]ncc45)nc(N4CCOCC4)c3s2)CC1 [Pictilisib] (partner 1 µM)
Not satisfied
